Molecular target: T1, orthogonal hCD122 receptor (hoRb), hCD122 with H133D and Y134F (human, UniProt P14784 27-550); also: reference of the scale not given here
T1 sequence: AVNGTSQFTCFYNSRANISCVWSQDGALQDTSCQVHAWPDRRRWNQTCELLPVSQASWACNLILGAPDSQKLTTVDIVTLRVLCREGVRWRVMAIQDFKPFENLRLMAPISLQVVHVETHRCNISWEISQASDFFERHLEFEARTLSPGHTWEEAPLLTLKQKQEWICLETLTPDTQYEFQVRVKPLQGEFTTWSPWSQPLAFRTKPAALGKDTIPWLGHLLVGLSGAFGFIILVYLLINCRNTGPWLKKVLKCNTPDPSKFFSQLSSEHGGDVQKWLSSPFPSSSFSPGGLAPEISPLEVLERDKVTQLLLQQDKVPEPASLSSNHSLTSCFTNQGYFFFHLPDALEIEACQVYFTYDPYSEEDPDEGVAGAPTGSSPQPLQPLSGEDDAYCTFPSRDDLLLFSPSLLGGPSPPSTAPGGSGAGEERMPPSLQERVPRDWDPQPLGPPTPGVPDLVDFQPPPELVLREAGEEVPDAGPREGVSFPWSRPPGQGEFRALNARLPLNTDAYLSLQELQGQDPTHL
Assay: cell-based or functional assay
recordedMetric: Relative Proliferation Fold Change 3F8 1:10 (fold)

// known answers, use as guide
binder	measured
SQVLGA (ligand) APTSSSTKKTQLQLSQLLVLLGAILNGINNYKNPKLTRMLTFKFYMPKKATELKHLQCLEEELKPLEEVLNLAQSKNFHLRPRDLISNINVIVLELKGSETTFMCEYADETATIVEFLNRWITFCQSIISTLT	15.6
T51I, SQVLKA (ligand) APTSSSTKKTQLQLSQLLVLLKAILNGINNYKNPKLTRMLTFKFYMPKKAIELKHLQCLEEELKPLEEVLNLAQSKNFHLRPRDLISNINVIVLELKGSETTFMCEYADETATIVEFLNRWITFCQSIISTLT	43.1

1: L80F, SQVLKA (ligand) APTSSSTKKTQLQLSQLLVLLKAILNGINNYKNPKLTRMLTFKFYMPKKATELKHLQCLEEELKPLEEVLNLAQSKNFHFRPRDLISNINVIVLELKGSETTFMCEYADETATIVEFLNRWITFCQSIISTLT
2: Q74S, SQVLKA (ligand) APTSSSTKKTQLQLSQLLVLLKAILNGINNYKNPKLTRMLTFKFYMPKKATELKHLQCLEEELKPLEEVLNLASSKNFHLRPRDLISNINVIVLELKGSETTFMCEYADETATIVEFLNRWITFCQSIISTLT
Lab log: flag the item ( 1 or 2 ) with the smaller Relative Proliferation Fold Change 3F8 1:10 figure. When you have decided, please share the label of that item.
1
(1: 2.8 fold, 2: 56.7 fold)
